Quick reference: pIC50 of the listed items.
target: human TOR (Homo sapiens, UniProt P42345); construct: FLAG; assay: mTOR enzyme assay (DELFIA, His6-S6K substrate); format: biochemical; settings: read-out: mTOR Kinase Avg. IC50
Keep it numeric: pIC50 is minus log10 of the concentration in mol/L.

Before answering, review these 2 worked examples.
In [3]: df
Out[3]:
                               query_smiles  measured_value
0  O=C1/C(=C/c2c(-c3ccccc3)[nH]c3ccccc23)Oc2c(O)cccc21            5.08
1  COc1cccc(-c2c(C=C3Oc4cc(O)cc(O)c4C3=O)c3ccccc3n2C)c1            6.41

[Q] Reported pIC50 for human TOR (Homo sapiens, UniProt P42345), given CNCCNC(=O)c1ccc(NC(=O)Nc2ccc3c(c2)C(=O)/C(=C/c2c(C4CCCCC4)[nH]c4ccc(OC)cc24)O3)cc1 ?
[A] 8.40

---

Recorded log10 IC50 for the following compounds
biological target: PI3K-gamma (Homo sapiens); assay: PI3K-gamma fluorescence polarization assay; assay type: biochemical; settings: PI3Kγ Avg. IC50
Sequence (P48736 whole entry, species assumed): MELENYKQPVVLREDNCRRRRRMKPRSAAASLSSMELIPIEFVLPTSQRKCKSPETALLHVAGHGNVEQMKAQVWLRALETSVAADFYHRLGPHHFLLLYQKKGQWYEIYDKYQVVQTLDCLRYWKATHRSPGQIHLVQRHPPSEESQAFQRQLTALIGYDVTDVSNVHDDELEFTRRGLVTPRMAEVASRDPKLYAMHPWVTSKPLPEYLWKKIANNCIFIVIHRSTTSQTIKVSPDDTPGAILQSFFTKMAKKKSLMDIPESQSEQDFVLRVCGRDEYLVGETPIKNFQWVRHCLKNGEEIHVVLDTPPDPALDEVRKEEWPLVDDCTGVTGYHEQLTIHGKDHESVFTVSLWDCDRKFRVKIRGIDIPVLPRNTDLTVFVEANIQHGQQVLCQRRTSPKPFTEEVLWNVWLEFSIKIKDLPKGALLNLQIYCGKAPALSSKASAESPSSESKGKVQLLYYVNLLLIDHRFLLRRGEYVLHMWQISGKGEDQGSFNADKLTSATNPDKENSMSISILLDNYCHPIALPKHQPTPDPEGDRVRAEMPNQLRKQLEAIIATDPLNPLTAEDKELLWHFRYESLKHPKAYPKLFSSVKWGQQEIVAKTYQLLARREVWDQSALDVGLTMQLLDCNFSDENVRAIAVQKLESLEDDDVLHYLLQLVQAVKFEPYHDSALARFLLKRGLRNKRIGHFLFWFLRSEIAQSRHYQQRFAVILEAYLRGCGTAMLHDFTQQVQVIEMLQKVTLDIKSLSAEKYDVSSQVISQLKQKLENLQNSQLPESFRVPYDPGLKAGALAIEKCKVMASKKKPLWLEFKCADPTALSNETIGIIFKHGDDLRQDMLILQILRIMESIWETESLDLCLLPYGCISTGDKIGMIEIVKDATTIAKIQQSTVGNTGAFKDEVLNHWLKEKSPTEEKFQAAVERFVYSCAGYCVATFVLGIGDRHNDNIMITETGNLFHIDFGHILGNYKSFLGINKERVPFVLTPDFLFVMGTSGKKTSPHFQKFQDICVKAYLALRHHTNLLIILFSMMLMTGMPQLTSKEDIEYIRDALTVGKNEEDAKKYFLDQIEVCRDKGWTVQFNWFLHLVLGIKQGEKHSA
Base-10 log of IC50, unit nM.

>>> df
                               query_smiles  endpoint_label  measured_value
0  CNC(=O)Nc1ccc2c(c1)C(=O)/C(=C/c1c(-c3ccncc3)n(CCN3CCN(C)CC3)c3ccc(OC)cc13)O2      log10 IC50            3.01

[Q] Please look up its log10 IC50: COc1cc(F)c2[nH]c(-c3c(C)nn(C)c3C)c(/C=C3\Oc4ccc(NC(=O)NCCN)cc4C3=O)c2c1
[A] 0.41

[Q] Report log10 IC50 for COc1ccc2c(c1)c(/C=C1\Oc3cc(O)cc(O)c3C1=O)c(C(F)(F)F)n2CCn1cccn1 please.
[A] 0.85

[Q] Need log10 IC50 of O=C1/C(=C/c2c(-c3ccc(Cl)cc3)[nH]c3ccccc23)Oc2c1ccc(O)c2O , thanks.
[A] 3.03

---

Listing of recorded pIC50 by entry.
molecular target: human TOR (Homo sapiens, UniProt P42345); construct: FLAG; test: mTOR enzyme assay (DELFIA, His6-S6K substrate); type: biochemical; details: read-out: mTOR Kinase Avg. IC50
As a rule, pIC50 stands for the negative log10 of the concentration, concentration in M.

>>> df
                               query_smiles  measured_value
0  O=C1C(=Cc2c(-c3ccccc3)n(Cc3ccccc3)c3ccccc23)Oc2cc(O)cc(O)c21            5.21
1  COc1ccc2c(c1)c(/C=C1\Oc3cc(O)cc(O)c3C1=O)c(C)n2CCCN(C)C            6.69

// next item, pIC50 requested
[Q] Data request, read-out pIC50, for CC(=O)c1ccc(-c2cccc3c2c(/C=C2\Oc4cc(O)cc(O)c4C2=O)cn3C)cc1
[A] 7.59

---

molecular target: PI3K-alpha (Homo sapiens, UniProt P42336); assay: PI3K-alpha fluorescence polarization assay; format: biochemical; conditions: read-out: PI3Kα Avg. IC50
Sequence (P42336 whole entry, species assumed): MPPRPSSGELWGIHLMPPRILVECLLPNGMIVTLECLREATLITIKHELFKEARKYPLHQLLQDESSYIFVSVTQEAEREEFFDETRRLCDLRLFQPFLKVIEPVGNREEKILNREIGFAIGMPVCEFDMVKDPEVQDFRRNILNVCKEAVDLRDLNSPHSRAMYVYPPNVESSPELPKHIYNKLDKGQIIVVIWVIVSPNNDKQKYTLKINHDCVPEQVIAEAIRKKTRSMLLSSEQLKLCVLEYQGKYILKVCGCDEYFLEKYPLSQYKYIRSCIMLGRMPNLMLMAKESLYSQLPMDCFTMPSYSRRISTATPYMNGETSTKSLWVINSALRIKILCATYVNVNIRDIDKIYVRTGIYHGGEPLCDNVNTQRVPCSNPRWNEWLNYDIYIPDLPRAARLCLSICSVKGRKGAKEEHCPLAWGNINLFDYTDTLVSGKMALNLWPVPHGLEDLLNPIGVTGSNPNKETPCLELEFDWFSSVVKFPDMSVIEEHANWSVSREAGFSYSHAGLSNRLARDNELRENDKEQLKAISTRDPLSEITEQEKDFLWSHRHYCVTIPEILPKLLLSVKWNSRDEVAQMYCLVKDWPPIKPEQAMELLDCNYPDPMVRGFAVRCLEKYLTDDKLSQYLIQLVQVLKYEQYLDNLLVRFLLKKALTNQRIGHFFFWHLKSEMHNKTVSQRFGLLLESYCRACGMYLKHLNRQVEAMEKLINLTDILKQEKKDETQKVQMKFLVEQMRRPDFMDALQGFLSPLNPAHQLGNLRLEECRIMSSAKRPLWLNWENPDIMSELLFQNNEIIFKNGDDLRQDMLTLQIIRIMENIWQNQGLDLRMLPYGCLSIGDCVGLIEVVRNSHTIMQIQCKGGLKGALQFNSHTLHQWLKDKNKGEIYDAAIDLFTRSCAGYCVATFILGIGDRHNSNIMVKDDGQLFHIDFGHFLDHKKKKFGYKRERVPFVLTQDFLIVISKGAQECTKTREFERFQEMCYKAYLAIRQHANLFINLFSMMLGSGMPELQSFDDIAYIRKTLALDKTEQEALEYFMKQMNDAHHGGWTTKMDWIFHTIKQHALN
Sequence (P27986 whole entry partner, species assumed): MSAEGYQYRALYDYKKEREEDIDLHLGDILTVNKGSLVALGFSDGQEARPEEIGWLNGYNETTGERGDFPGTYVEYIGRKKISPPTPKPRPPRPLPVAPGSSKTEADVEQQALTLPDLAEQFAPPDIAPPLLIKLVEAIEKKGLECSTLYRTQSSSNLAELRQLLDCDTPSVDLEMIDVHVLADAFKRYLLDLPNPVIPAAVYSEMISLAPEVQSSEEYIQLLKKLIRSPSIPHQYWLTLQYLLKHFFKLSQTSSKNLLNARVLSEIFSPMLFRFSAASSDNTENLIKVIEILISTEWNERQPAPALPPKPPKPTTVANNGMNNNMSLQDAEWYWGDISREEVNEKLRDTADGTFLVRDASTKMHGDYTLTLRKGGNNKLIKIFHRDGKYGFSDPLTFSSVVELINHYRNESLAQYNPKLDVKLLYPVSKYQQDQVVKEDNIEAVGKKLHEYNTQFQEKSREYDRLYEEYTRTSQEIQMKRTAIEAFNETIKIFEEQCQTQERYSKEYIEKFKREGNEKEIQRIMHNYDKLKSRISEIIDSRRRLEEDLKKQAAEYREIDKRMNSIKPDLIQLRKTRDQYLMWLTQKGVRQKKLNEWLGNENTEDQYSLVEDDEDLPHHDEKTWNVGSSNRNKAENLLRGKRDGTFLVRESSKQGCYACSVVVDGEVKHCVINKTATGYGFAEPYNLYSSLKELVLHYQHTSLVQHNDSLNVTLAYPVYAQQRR
Field 'label' (enum: criterion met / criterion not met). Set to criterion met when IC50 is strictly under 0.6 µM; else criterion not met.

Example cases with answers are listed next.
In [3]: df
Out[3]:
                                   molecule     assigned_label
0  COc1ccc2[nH]c(-c3c(C)noc3C)c(/C=C3\Oc4cc(O)cc(O)c4C3=O)c2c1      criterion met
1  CNC(=O)Nc1cc2c(cc1C)O/C(=C\c1c(C)n(CCN3CCN(C)CC3)c3ccc(OC)cc13)C2=O      criterion met
2    Cc1ccc2c(/C=C3\Sc4ccccc4C3=O)c[nH]c2c1  criterion not met

[Q] Would you kindly verify if IC50 of COc1ccc2[nH]c(-c3ccccc3)c(CC3Oc4cc(O)cc(O)c4C3=O)c2c1 (centres unmarked) is strictly less than 0.6 µM?
[A] criterion met

[Q] is_below(IC50, 0.6 µM) for Cn1cc(/C=C2\Oc3ccc(O)cc3C2=O)c2c(-c3ccccc3)cccc21 ?
[A] criterion not met

[Q] # strict comparison: is reported IC50 < 0.6 µM? input = O=C1C(=Cc2c[nH]c3ccc(I)cc23)Oc2cc(O)cc(O)c21
[A] criterion met

[Q] Determine if COc1ccc2[nH]cc(/C=C3\Oc4ccc(NC(=O)Nc5ccccc5)cc4C3=O)c2c1 shows IC50 strictly lower than 0.6 µM.
[A] criterion not met

[Q] Consider the molecule Cn1cc(/C=C2\Oc3cccc(O)c3C2=O)c2c(-c3ccccc3)cccc21 . Is its IC50 strictly less than 0.6 µM?
[A] criterion not met

[Q] API: query returns whether the molecule falls strictly under 0.6 µM in IC50. Query: COc1ccc2[nH]c(-c3c(C)nn(C)c3C)c(/C=C3\Oc4ccc(NC(=O)Nc5cccnc5)cc4C3=O)c2c1
[A] criterion met
